test system: CCRIS mutagenicity, Ames/micronucleus/aberration tests; test: CCRIS mutagenicity studies; conditions: Test System: AMES SALMONELLA TYPHIMURIUM; Strain/Indicator: TA98; Metabolic Activation: NONE; Method: PREINCUBATION
Active and inactive are the calls of the source. The rule behind the calls is not given here.
Your reply should match one of these outcome classes. active, inactive

Completed entries (count: 4):
> print(dat)
                                 compound                                    system  category
1                                CC1CCCC1  CCRIS mutagenicity, Ames/micronucleus/aberration tests  inactive
2  Cc1c2ccccc2cc2c3c(ccc12)C(=O)C(=O)C=C3  CCRIS mutagenicity, Ames/micronucleus/aberration tests  inactive
3                  Nc1cc2nc3ccccc3nc2cc1N  CCRIS mutagenicity, Ames/micronucleus/aberration tests  inactive
4                           Nc1ccc(Cl)cc1  CCRIS mutagenicity, Ames/micronucleus/aberration tests  inactive

INPUT: Look up the recorded call for CC(C)(c1cc(Br)c(O)c(Br)c1)c1cc(Br)c(O)c(Br)c1 in this test.
OUTPUT: inactive

INPUT: What did this assay record as the result for [O]=[Cr](=[O])([OH])[O][Cr](=[O])(=[O])[OH] ?
OUTPUT: active

INPUT: Per the assay record, what outcome was assigned to C=C1CC(=O)O1 ?
OUTPUT: inactive

INPUT: What was the test verdict on C=C(C)C(=O)O ?
OUTPUT: inactive

INPUT: For this compound, state the assay outcome: O=C(Cl)c1ccc(C(=O)Cl)cc1
OUTPUT: active

---

test system: CCRIS mutagenicity, Ames/micronucleus/aberration tests; assay: CCRIS mutagenicity studies; settings: Test System: E. COLI; Strain/Indicator: WP2 UVRA; Metabolic Activation: HAMSTER, LIVER, S-9; Method: STANDARD PLATE
The source made the active and inactive calls. The rule behind the calls is not given here.
# output must be one of y (active), n (inactive)

Use these answered entries as a reference point.
> print(dat)
                           molecule  category
1     O=CC1CO1 (stereo unspecified)         y
2  CCOP(=S)(OCC)Oc1cc(C)nc(C(C)C)n1         n
3                  Nc1ccc(Cl)c(N)c1         n
4                   O=Nc1ccc(NO)cc1         n
5       CC(=O)Nc1cccc2c1-c1ccccc1C2         n
6                     COc1ccc(N)cc1         n

INPUT: State the result this test recorded for CC(=O)OC/N=[N+](/C)[O-] .
OUTPUT: n

INPUT: Give the logged outcome of this assay for the following molecule: Nc1cccc2c(N)cccc12
OUTPUT: n

INPUT: Please state the recorded outcome for this molecule: Nc1ccc2ccccc2c1
OUTPUT: n

INPUT: For CN(C)c1ccc(C(=O)c2ccc(N(C)C)cc2)cc1 , what call appears in the results of this test?
OUTPUT: n

INPUT: Entry CCN(CC)N=O : call = ?
OUTPUT: n

---

System: CCRIS mutagenicity, Ames/micronucleus/aberration tests
Experiment: CCRIS mutagenicity studies
Conditions: Test System: AMES SALMONELLA TYPHIMURIUM; Strain/Indicator: TA98; Metabolic Activation: HAMSTER, LIVER, S-9, AROCLOR 1254 (10%); Method: PREINCUBATION
Description: The CCRIS database contains chemical records with carcinogenicity, mutagenicity, tumor promotion, and tumor inhibition test results. It was developed by the National Cancer Institute (NCI). Data are derived from studies cited in primary journals, current awareness tools, NCI reports, and other sources. Test results have been reviewed by experts in carcinogenesis and mutagenesis. CCRIS provides historical information from the years 1985 - 2011. It is no longer updated. […]
Active and inactive are the calls of the source. No rule for the calls is given here.
Respond with a class label; see Y (active), N (inactive)

> print(dat)
                                   compound  category
1      N#CC(O)c1ccccc1 (stereo unspecified)         N
2                         OC/C(Br)=C(\Br)CO         Y
3                       Oc1c(Br)cc(Br)cc1Br         N
4  C1=CC2C3C=CC(C3)C2C1 (stereo unspecified)         N
5                        Cc1ccc(NC(N)=O)cc1         N

INPUT: Fill in: this test's call for CC(C)(C)C(=O)C1C(=O)c2ccccc2C1=O is ___
OUTPUT: N

---

test system: CCRIS mutagenicity, Ames/micronucleus/aberration tests; assay: CCRIS mutagenicity studies; settings: Test System: AMES SALMONELLA TYPHIMURIUM; Strain/Indicator: TA100; Metabolic Activation: NONE; Method: PREINCUBATION
Activity calls are given as the source filed them. No rule for the calls is given here.
Entry note: the call must match one of active, inactive

Answered cases to consult:
> print(dat)
                                   compound  category
1  Oc1cc2c(cc1O)[C@@H]1c3ccc(O)c(O)c3OC[C@]1(O)C2  inactive
2  O=C(O)c1cc([N+](=O)[O-])cc([N+](=O)[O-])c1    active

INPUT: What classification did O=[N+]([O-])c1ccc(OCC2CO2)cc1 (centres undefined) end up with in this test?
OUTPUT: active

INPUT: Hi, sorry to bother you, what did the test record for CCCCCCCOc1ccccc1NC(=O)OCCN1CCCCC1 ?
OUTPUT: inactive

---

tested on: CCRIS mutagenicity, Ames/micronucleus/aberration tests; experiment: CCRIS mutagenicity studies; conditions: Test System: AMES SALMONELLA TYPHIMURIUM; Strain/Indicator: TA100; Metabolic Activation: RAT, LIVER, S-9, AROCLOR 1254; Method: PREINCUBATION
Active and inactive are the calls of the source. The rule behind the calls is not given here.
Choose one outcome from this list and give only that: active, inactive

> print(dat)
                                   compound  category
1                                Brc1ccccc1  inactive
2  O=c1oc2c([N+](=O)[O-])ccc3ccc4cccc1c4c32    active
3                   O=C(O)/C=C/c1ccc(Cl)cc1  inactive
4                            C[Si](C)(Cl)Cl  inactive
5            CC(=O)OCc1cccc([N+](=O)[O-])c1  inactive
6                  O=[N+]([O-])c1cccc(CO)c1  inactive

INPUT: Outcome logged for CCN(CC)N=O in this assay:
OUTPUT: active

INPUT: Write down the call the test reported for this compound. Item: Nc1cccc(N)c1
OUTPUT: active

INPUT: Recorded test call requested for Cc1c([N+](=O)[O-])c(C)c([N+](=O)[O-])c(C(C)(C)C)c1[N+](=O)[O-]
OUTPUT: inactive

INPUT: Name the outcome recorded for Cn1cnc2c3cccnc3ccc21 in the assay.
OUTPUT: active

---

tested on: CCRIS mutagenicity, Ames/micronucleus/aberration tests; assay: CCRIS mutagenicity studies; conditions: Test System: AMES SALMONELLA TYPHIMURIUM; Strain/Indicator: TA100; Metabolic Activation: HAMSTER, LIVER, S-9, AROCLOR 1254; Method: PREINCUBATION
Calls of active or inactive are those of the source. How the calls were made is not given here.
The reply should name one outcome from active, inactive

> print(dat)
                                   compound  category
1         NC(=O)N/N=C/c1ccc([N+](=O)[O-])o1    active
2                    COc1ccccc1[N+](=O)[O-]  inactive
3  Cc1cccc(OP(=O)(Oc2cccc(C)c2)Oc2cccc(C)c2)c1  inactive
4                            C[Si](C)(Cl)Cl  inactive

INPUT: # outcome recorded in this test, key = COc1cc(CCCS(=O)(=O)O)ccc1O[C@H](Cc1cccc(OC)c1O)CS(=O)(=O)O
OUTPUT: inactive

INPUT: For Oc1cc(Cl)cc(Cl)c1 , which call appears in the assay record?
OUTPUT: inactive

INPUT: Fill in: this test's call for ClC(Cl)Br is ___
OUTPUT: inactive

INPUT: Query: recorded result category for Brc1ccccc1 in this test
OUTPUT: inactive

INPUT: Hello, I am checking results. What call was entered for CC1CS1 (stereo unspecified) ?
OUTPUT: inactive

INPUT: Tell me the recorded outcome of this test for CCCCC(CC)COC(=O)c1ccc(N(C)N=O)cc1 (stereo unspecified) .
OUTPUT: inactive

INPUT: Lab log entry: NCC(=O)O — outcome as called in the assay?
OUTPUT: inactive
